B1: tRNA (parent)
chain: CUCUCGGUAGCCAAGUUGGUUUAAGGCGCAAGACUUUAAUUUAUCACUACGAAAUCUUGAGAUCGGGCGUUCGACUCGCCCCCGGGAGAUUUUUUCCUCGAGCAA

Variants of: B1
Assay: nonsense suppression (GFP-seq) (ratio to wild type); higher = more function; SUP4oc tRNA, yeast GFP reporter sort-seq
This sample holds only a part of the variants without activity.
Classes by nonsense suppression: bucket A (below 0.04), bucket B (0.04 to below 0.06), bucket C (0.06 or more)

U2G G28U U35C = bucket A
C12G A14G A33G = bucket A

Task item: Note: place this variant into its band. Item: G67A U76G G78A
Reply: bucket A

Task item: Assign a bin to C68A C77A
Reply: bucket A
